SYSTEM_NAME: T1, monkey MSR1 extracellular domain expressed with a N-terminal hexahistidine-myc-myc tag (HMM-mfMSR1) (monkey (Macaca fascicularis))
T1 chain: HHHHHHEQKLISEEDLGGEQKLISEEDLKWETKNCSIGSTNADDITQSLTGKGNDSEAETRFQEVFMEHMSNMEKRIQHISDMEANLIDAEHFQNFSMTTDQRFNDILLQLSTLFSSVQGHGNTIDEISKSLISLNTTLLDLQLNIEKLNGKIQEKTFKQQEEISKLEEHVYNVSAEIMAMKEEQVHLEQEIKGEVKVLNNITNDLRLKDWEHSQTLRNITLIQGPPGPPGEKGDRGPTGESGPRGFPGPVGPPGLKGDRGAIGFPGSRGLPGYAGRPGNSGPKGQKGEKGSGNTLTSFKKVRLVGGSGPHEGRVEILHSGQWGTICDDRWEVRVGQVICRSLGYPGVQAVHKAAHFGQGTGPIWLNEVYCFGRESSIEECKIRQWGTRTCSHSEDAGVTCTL
MEASUREMENT_PROTOCOL: SPR Biacore, 37 C, antibody captured
# t½ per entry

>  <BINDER>
H1H27739P-N297Q (antibody, V domains shown, Human IgG1 Fc with N297Q point mutation) VH: EVQLVESGGGLVQPGGSLRLSCTASGFTFSSYAMSWVRQAPGKGLEWVSAISGTGSSTYFTDSVKGRFAISRDNSKNTLYLQMNSLRAEDTAVYYCAKDGEWLSTVTLFDYWGQGTLVTVSS VL: EIVMTQSPATLSVSPGERATLSCRASQSVSSNLAWYQQKPGQAPRLLIYGASTRATGIPARFSGSGSGTDFTLTISSLQSEDFALYYCQQYFIWPPHPTFGPGTKVDIKR

>  <t½>
14 min

$$$$
>  <BINDER>
H1H27747P-N297Q (antibody, V domains shown, Human IgG1 Fc with N297Q point mutation) VH: QVQLVESGGAVVQPGRSLRLSCAASGFTFSYYGMHWVRQAPGKGLEWVAVISYDGSKKYYADSVKGRFTISRDNSKNTLYLQMNSLRAEDTAVYYCAKDLTVDFYYGMDVWGQGTTVTVSS VL: DIQMTQSPSSVSASVGDRVTITCRASQGISSWLAWYQQKPGKAPKLLIYATSSLQSGAPSRFSGSGSGTDFTLTISSLQPEDFATYFCQQANSFPYTFGQGTKLEIKR

>  <t½>
5 min

$$$$

Attention now turns to another entry.
Identify the reported t½ for the following entry. H1H27734P-N297Q (antibody, V domains shown, Human IgG1 Fc with N297Q point mutation) VH: EVQLVESRGGLVQPGGSLRLSCAASGFTFSSYAMSWVRQAPGKGLEWVSAISGSGGSTFYADSVKGRFTISRDNSKNTVYLQMNSLRAEDTAVYYCAKALVLRFLEWLGDYWGQGTLVTVSS VL: DIQMTQSPSTLSASVGDRVTITCRASQSISSWLAWFQQKPGKAPKLLIYKASSLESGVPSRFSGSGSGTEFTLTISSLQPDDFATYYCQQYKSYWTFGQGTKVEIKR
4 min

Origin of values: patent US20190367631A1
